- TARGET SYSTEM: human APJ receptor (Homo sapiens (Human))
- Sequence (P35414 whole entry): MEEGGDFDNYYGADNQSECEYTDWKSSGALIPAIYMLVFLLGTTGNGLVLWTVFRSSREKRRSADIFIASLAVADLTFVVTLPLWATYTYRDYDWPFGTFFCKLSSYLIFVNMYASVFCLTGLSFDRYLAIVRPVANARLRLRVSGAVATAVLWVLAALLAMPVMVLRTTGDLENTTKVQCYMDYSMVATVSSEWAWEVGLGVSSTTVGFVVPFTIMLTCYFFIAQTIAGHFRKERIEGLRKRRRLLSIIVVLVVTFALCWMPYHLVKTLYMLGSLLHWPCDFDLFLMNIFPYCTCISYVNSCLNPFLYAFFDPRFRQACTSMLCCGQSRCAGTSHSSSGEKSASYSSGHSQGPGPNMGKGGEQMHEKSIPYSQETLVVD
- ASSAY OVERVIEW: biochemical
- DETAILS: [35S]GTPγS binding, CHO membranes expressing human APJ receptor; read-out: Activity hAPJ SPA EC50 IP
OUTCOME MEASURE: pEC50
# pEC50 is unitless: minus log10 of the molar concentration; print number only

Returns the measured pEC50 for the input compound. Input: CCn1ccc(-c2nnc(NS(=O)(=O)[C@@H](C)[C@H](OC)c3ncc(C)cn3)n2-c2c(OC)cccc2OC)n1
9.26

Could you do the same for COc1cccc(OC)c1-n1c(NS(=O)(=O)[C@@H]2C[C@H](O)CN(c3ncc(F)cn3)C2)nnc1-c1nc(C)cs1 (single isomer, unassigned) , please?
8.92

Proceed to COc1ncnc(OC)c1-n1c(NS(=O)(=O)[C@@H](C)[C@H](OC)c2ncc(C)cn2)nnc1-c1csc(C)n1
8.39

---

- TARGET SYSTEM: human APJ receptor (Homo sapiens (Human))
- ASSAY OVERVIEW: biochemical
- DETAILS: [35S]GTPγS binding, CHO membranes expressing human APJ receptor; read-out: Activity hAPJ SPA EC50 IP
Answer each item with its documented pEC50.
Please express pEC50 as -log10 of the molar concentration.

Returns the measured pEC50 for the input compound. Input: COc1cccc(OC)c1-n1c(NS(=O)(=O)CCc2ncc(C)cn2)nnc1-c1nc(C)cs1
8.08

Queued: COc1cccc(OC)c1-n1c(NS(=O)(=O)CCc2ccc(F)cc2C#N)nnc1-c1nc(C(C)C)cs1
7.51

Then what about the compound COc1ccccc1-n1c(NS(=O)(=O)CCc2ccccc2)nnc1-c1cccs1 ?
6.65

Would you mind doing COc1cccc(OC)c1-n1c(NS(=O)(=O)[C@@H](C)[C@H](O)c2cn3ccccc3n2)nnc1-c1ccn(C)n1 (single isomer, unassigned) as well?
8.21

Query COc1cccc(OC)c1-n1c(NS(=O)(=O)[C@@H](C)[C@H](OC)c2ncc(C)cn2)nnc1-c1cnccn1 next
8.17

What do you have for COc1cccc(OC)c1-n1c(NS(=O)(=O)[C@H](C)[C@@H](C)c2ncc(C)cn2)nnc1-c1nc(C)cs1 (stereo in doubt) ?
9.89

What about COc1cccc(OC)c1-n1c(NS(=O)(=O)[C@@H](C)[C@H](C)c2ncc(Cl)cn2)nnc1-c1cc(C)on1 ?
9.36

Same thing, different compound: COc1cccc(OC)c1-n1c(NS(=O)(=O)[C@@H](C)[C@H](O)c2ncc(C)cn2)nnc1-c1ccn(C(F)F)n1
9.06

Note, next up: COc1cccc(OC)c1-n1c(NS(=O)(=O)[C@@H](C)[C@H](OC)c2ncc(Cl)cn2)nnc1-c1cc(C)on1
9.21

One more compound: COc1cccc(OC)c1-n1c(NS(=O)(=O)[C@H](C)[C@@H](OC)c2ccc(C#N)cc2C#N)nnc1-c1ccn(C)n1 (single isomer, unassigned) [Example 265.0]
7.15

Please answer likewise for COc1cccc(OC)c1-n1c(NS(=O)(=O)[C@@H](C)[C@H](OC)c2ncc(C)cn2)nnc1-c1cnn2c1CCC2
8.92

How about COc1cccc(OC)c1-n1c(NS(=O)(=O)[C@@H](C)[C@H](OC)c2ncc(Cl)cn2)nnc1-c1cc2n(n1)CCC2 ?
9.08

Follow-up entry: CCn1ccc(-c2nnc(NS(=O)(=O)[C@@H](C)[C@H](O)c3ncc(C)cn3)n2-c2c(OC)cccc2OC)n1
9.43

Now consider COc1cccc(OC)c1-n1c(NS(=O)(=O)[C@H](C)[C@@H](C)c2cnc(C)cn2)nnc1-c1ccn(C)n1 and answer again.
7.08

# repeat for CCc1csc(-c2nnc(NS(=O)(=O)CCc3ccc(F)cc3C#N)n2-c2c(OC)cccc2OC)n1
7.96

Same read-out for CCS(=O)(=O)Nc1nnc(-c2ccn(C)n2)n1-c1c(OC)cccc1OC ?
7.09

Also need COc1cccc(OC)c1-n1c(NS(=O)(=O)[C@@H](C)[C@H](OC)c2ncc(C)cn2)nnc1-c1ncn(C)n1 , thanks.
7.28

Try this compound too: COc1cccc(OC)c1-n1c(NS(=O)(=O)C[C@H](OC)c2ccc(F)cc2S(C)(=O)=O)nnc1-c1ccn(C)n1 (single isomer, unassigned) [Example 372.0]
8.85

Another compound: COc1cccc(OC)c1-n1c(NS(=O)(=O)C[C@H](O)c2ccc(Cl)cc2)nnc1-c1ccn(C)n1 (single isomer, unassigned) [Example 374.0]
8.15

// same read-out, input: CCc1csc(-c2nnc(NS(=O)(=O)[C@H](C)Cc3ncc(F)cn3)n2-c2c(OC)cccc2OC)n1 (single isomer, unassigned) [Example 104.0]
8.34

Continue with CCO[C@@H](c1ncc(Cl)cn1)[C@H](C)S(=O)(=O)Nc1nnc(-c2ccn(C)n2)n1-c1c(OC)cccc1OC (single isomer, unassigned) [Example 352.0]
7.46

What would you report for COc1cccc(OC)c1-n1c(NS(=O)(=O)CCC(=O)N2CCCC2)nnc1-c1cccs1 ?
7.47

What do we get for COc1cccc(OC)c1-n1c(NS(=O)(=O)[C@@H](C)[C@H](OC)c2ncc(Cl)cn2)nnc1-c1ccn(C(F)F)n1 ?
9.89

Also COc1cccc(OC)c1-n1c(NS(=O)(=O)[C@H](C)[C@H](O)c2ncc(C)cn2)nnc1-c1nc(C)cs1 (single isomer, unassigned) [Example 316.0] ?
7.09

COc1cccc(OC)c1-n1c(NS(=O)(=O)[C@@H](C)[C@H](OC)c2ncc(C)cn2)nnc1-c1nc(C2CC2)cs1 ?
9.59

What do you have for COc1cccc(OC)c1-n1c(NS(=O)(=O)[C@@H](C)Cc2ncc(F)cn2)nnc1-c1cccnn1 (single isomer, unassigned) [Example 33.0] ?
6.72
